Where a name gives a salt, the structure may show the parent alone.
Kind request: treat 200 °C as inclusive, so melting point at 200 °C or higher is criterion met, anything lower is criterion not met.

> print(dat)
                                    compound              label
 1  Cc1ccc(CCN2CCN(c3nsc4ccccc34)CC2)c2c1C(C)(C)CC(=O)N2 [Example 20]  criterion not met
 2  Cc1ccc(CCN2CCN(c3noc4ccccc34)CC2)c2c1C(C)(C)CCN2 [Example 25]  criterion not met
 3  CC1(C)CC(=O)Nc2c(CCN3CCN(c4noc5ccccc45)CC3)cc(F)cc21 [Example 27]      criterion met
 4  CC1(C)CC(=O)Nc2c(CCN3CCN(c4n[s+]([O-])c5ccccc45)CC3)cc(F)cc21 (centres unmarked) [Example 14]      criterion met
 5  CC1(C)CC(=O)Nc2c(CCCN3CCN(c4nsc5ccccc45)CC3)cccc21 [Example 18]  criterion not met
 6  CC1(C)CC(=O)Nc2c(CCN3CCN(c4nsc5ccc(F)cc45)CC3)cc(F)cc21 [Example 16]  criterion not met
 7  CC(=O)N1CCC(C)(C)c2c(C)ccc(CCN3CCN(c4nsc5ccccc45)CC3)c21 (as salt: HCl) [Example 21]  criterion not met
 8  CC1(C)Cc2cccc(CCN3CCN(c4nsc5ccccc45)CC3)c2NC1=O [Example 5]  criterion not met
 9  Cl.O=C1CCc2cccc(CCN3CCN(c4nsc5ccccc45)CC3)c2N1      criterion met
10  Cc1ccc(CCN2CCN(c3noc4ccccc34)CC2)c2c1C(C)(C)CC(=O)N2 [Example 24]  criterion not met
11  O=C1CC(c2ccccc2)c2cccc(CCN3CCN(c4nsc5ccccc45)CC3)c2N1 (centres unmarked) [Example 6]      criterion met
12  CC(=O)N1CCC(C)(C)c2cccc(CCCN3CCN(c4nsc5ccccc45)CC3)c21 (as salt: HCl) [Example 19]  criterion not met
13  CC1(C)CC(=O)Nc2c(CCN3CCN(c4nsc5ccccc45)CC3)cc(F)cc21 (as salt: hydrochloride) [Example 3]      criterion met
14  CC1(C)CC(=O)Nc2c(CCN3CCN(c4nsc5ccccc45)CC3)cccc21 (as salt: hydrochloride) [Example 1]      criterion met
